The measurements presented in this section are drawn from patent US20050064518A1.

Recorded absorbance for the following binders
Target: T1, O772P 3-repeat recombinant protein (human)
T1 construct: Repeats are residues 14-452 of the entry
T1 chain: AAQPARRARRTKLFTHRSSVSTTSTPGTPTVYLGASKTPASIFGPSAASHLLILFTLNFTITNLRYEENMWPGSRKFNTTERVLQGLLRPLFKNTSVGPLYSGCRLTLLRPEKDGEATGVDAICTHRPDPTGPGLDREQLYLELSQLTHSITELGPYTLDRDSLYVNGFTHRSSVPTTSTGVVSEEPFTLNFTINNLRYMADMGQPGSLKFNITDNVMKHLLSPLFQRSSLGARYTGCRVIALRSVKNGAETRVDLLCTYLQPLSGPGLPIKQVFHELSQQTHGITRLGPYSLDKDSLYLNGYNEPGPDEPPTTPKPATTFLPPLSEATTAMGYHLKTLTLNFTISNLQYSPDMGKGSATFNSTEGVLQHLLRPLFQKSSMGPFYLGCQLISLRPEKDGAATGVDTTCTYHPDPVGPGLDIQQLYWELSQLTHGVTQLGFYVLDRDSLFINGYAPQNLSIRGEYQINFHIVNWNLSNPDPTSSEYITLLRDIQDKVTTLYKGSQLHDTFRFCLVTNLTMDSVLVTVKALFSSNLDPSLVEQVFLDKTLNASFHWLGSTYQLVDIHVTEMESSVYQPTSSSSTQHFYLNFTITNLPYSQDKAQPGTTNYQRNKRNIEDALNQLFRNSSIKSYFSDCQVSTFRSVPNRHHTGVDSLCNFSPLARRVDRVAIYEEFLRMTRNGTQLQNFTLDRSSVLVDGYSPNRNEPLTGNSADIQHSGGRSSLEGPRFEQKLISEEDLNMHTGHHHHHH
Experiment: ELISA competition, plate-bound O772P 3-repeat; no competitor
// note: answer is a bare numeric in OD

**Query** Which absorbance reading was recorded for the binder monoclonal antibody 501.1 (antibody, V domains shown, Murine hybridoma antibody) VH: QIQLVQSGPELKKPGETVQISCKASGYIFTDYGMNWVKQAPGKGLKWMGCINTYTGETIYSDDFRGRFAISLETSASTAFIQINNLKNEDAATYFCARGNYRDAIDYWGQGTSVTVSS VL: DIKMTQSPSSIYASLGERVTITCKASQDIKSYLSWYQQKPWKSPKTLIYYATTLADGVPSRFSGSGSGQDYSLIINSLESDDIATYFCLHHDESPFTFGSGTKLEI ?
**Result** 0.856

**Query** Which absorbance reading was recorded for the binder monoclonal antibody 117.1 (antibody, V domains shown, Murine hybridoma antibody) VH: QVTLKESGPGILQPSQTLSLTCSFSGFSLSTPGMGVGWIRQPSGKGLEWLAHIWWDDFKRDNPALKSRLTISKDTSSSQVFLKIASVDTADTATYYCVRVDGNFLSWYFDVWGAGTTVTVSS VL: DAVMTQTPLSLPVSLGDQASISCRSSQSLVHSNGNTYLHWYLQKPGQSPKLLIYKVSNRFSGVPDRFSGSGSGTDFTLRISRVEAEDLGVYFCSQSRYVPWTFGGGTKLEIK ?
**Result** 0.619

**Query** Which absorbance reading was recorded for the binder monoclonal antibody 368.1 (antibody, V domains shown, Murine hybridoma antibody) VH: EVQLQQSGPELVRTGASVKISCKASGYSFTGFYMHWVKQSLGKSLEWIGYVSCYTGATTYTQKFKGKATFTVDTSSSTAYMQLNSLTSEDSAVYYCAREGDYYSMDFWGQGTSVTVSS VL: DVVMTQTPLSLPVSLGDQASISCRSSQSLERTNGNTYLHWYLQKPGQSPKLLIYKVSSRFSGVPDRFSGSGSGTDFTLKISRVEAEDLGIYFCSQTTHGPPTCGGGTKLEIK ?
**Result** 1.29
